# Method Summary: Hepatocytes stability assay (human hepatocytes)
# Assay type: in vitro ADME
# Test Context: both sexes, human, cryopreserved hepatocytes, cryopreserved human hepatocytes (pool of 50 mixed gender); 1 μM test compound; 1×10^6 cell/mL; 37 degrees C; read-out: CLint (μL/min/million cells)
Value Kind: hepatocyte CLint at 1 μM (µL/min/1e6 cells)

Some compounds with recorded hepatocyte CLint at 1 μM:
Compound	hepatocyte CLint at 1 μM / µL/min/1e6 cells
C[C@@H](C(F)(F)F)S(=O)(=O)N[C@H]1CCCN2C(=O)COc3ccccc3C3CCC(CC3)OC[C@@H]12 (stereo in doubt)	28
CC(C)(C)S(=O)(=O)N[C@H]1CCCN2CCOc3ccccc3[C@H]3CC[C@H](CC3)OCC12 (stereo in doubt)	69

(P) Cc1cnc2c(c1)[C@H]1CC[C@H](CC1)OCC1[C@@H](NS(=O)(=O)C(C)C)CCCN1C(=O)CO2 (stereo in doubt)
(Q) CC[C@@H](C)S(=O)(=O)N[C@H]1CCCN2C(=O)COc3ccccc3C3CCC(CC3)OC[C@@H]12 (stereo in doubt)
(R) CS(=O)(=O)N[C@H]1CCCN2C(=O)[C@@H](CO)Oc3ccccc3[C@H]3CC[C@H](CC3)OCC12 (stereo in doubt)
(S) O=S(=O)(CC1CCC1)N[C@H]1CCCN2CCOc3ccccc3[C@H]3CC[C@H](CC3)OCC12 (stereo in doubt)
(T) O=C1COc2ccccc2[C@H]2CC[C@H](CC2)OCC2[C@@H](NS(=O)(=O)C(F)(F)F)CCN12 (stereo in doubt)
[ask] Arrange the 5 entries by hepatocyte CLint at 1 μM so the values rise. To answer, arrange all of the labels according to the requested order.
[reply] T, R, P, Q, S

---

# Tested on: MDR1
# Method Summary: MDCK-MDR1 permeability assay
# Assay type: in vitro ADME
# Test Context: dog, MDCK-MDR1, MDCK-MDR1 cells; Papp B→A divided by Papp A→B; 3 μM; 2 hours; read-out: Efflux ratio (ER)
Value Kind: efflux ratio at 2 h, 3 μM

Some molecules with recorded efflux ratio at 2 h, 3 μM:
Molecule	Observed Measurement
CC1(S(=O)(=O)N[C@H]2CCCN3CCOc4ccccc4[C@H]4CC[C@H](CC4)OCC23)CC1 (stereo in doubt)	7.5
CC1(S(=O)(=O)N[C@H]2CCCN3C(=O)COc4ccccc4C4CCC(CC4)OC[C@@H]23)CC1 (stereo in doubt)	3.6
O=C1COc2ncncc2[C@H]2CC[C@H](CC2)OCC2[C@@H](NS(=O)(=O)C3CC3)CCCN12 (stereo in doubt)	44
Cc1cccc2c1C1CCC(CC1)OC[C@H]1[C@@H](NS(=O)(=O)C(C)C)CCCN1C(=O)CO2 (stereo in doubt)	50
O=C1COc2ccccc2[C@H]2CC[C@H](CC2)OCC2[C@@H](NS(=O)(=O)CC3CCC3)CCCN12 (stereo in doubt)	10
Cc1ccnc2c1[C@H]1CC[C@H](CC1)OCC1[C@@H](NS(=O)(=O)C(F)(F)F)CCN1C(=O)CO2 (stereo in doubt)	4.7
Cc1ccnc2c1[C@H]1CC[C@H](CC1)OCC1[C@@H](NS(=O)(=O)C(C)C)CCN1C(=O)CO2 (stereo in doubt)	11
CC[C@@H]1Oc2ccccc2[C@H]2CC[C@H](CC2)OCC2[C@@H](NS(C)(=O)=O)CCCN2C1=O (stereo in doubt)	100

(A) O=C1COc2ccccc2[C@H]2CC[C@H](CC2)OCC2[C@@H](NS(=O)(=O)C3CCCC3)CCCN12 (stereo in doubt)
(B) Cc1cccc2c1C1CCC(CC1)OC[C@H]1[C@@H](NS(=O)(=O)C3CC3)CCCN1C(=O)CO2 (stereo in doubt)
(C) CC(C)S(=O)(=O)N[C@H]1CCCN2C(=O)COc3ncccc3C3CCC(CC3)OC[C@@H]12 (stereo in doubt)
[ask] Please list these molecules in decreasing order of efflux ratio at 2 h, 3 μM. To answer, arrange all of the labels according to the requested order.
[reply] C, A, B
(C: 100, A: 59, B: 31)

(P) CC(C)S(=O)(=O)N[C@H]1CCCN2C(=O)COc3ncc(Cl)cc3[C@H]3CC[C@H](CC3)OCC12 (stereo in doubt)
(Q) O=S(=O)(CC1CC1)N[C@H]1CCCN2CCOc3ccccc3[C@H]3CC[C@H](CC3)OCC12 (stereo in doubt)
(R) O=C1COc2cccc(F)c2[C@H]2CC[C@H](CC2)OCC2[C@@H](NS(=O)(=O)C(F)(F)F)CCCN12 (stereo in doubt)
(S) Cc1ncnc2c1[C@H]1CC[C@H](CC1)OCC1[C@@H](NS(=O)(=O)C(F)(F)F)CCCN1C(=O)CO2 (stereo in doubt)
(T) CC(C)S(=O)(=O)N[C@H]1CCCN2CCOc3ccccc3[C@H]3CC[C@H](CC3)OCC12 (stereo in doubt)
[ask] Arrange the 5 entries by efflux ratio at 2 h, 3 μM so the values rise. To answer, arrange all of the labels according to the requested order.
[reply] T, Q, R, S, P
(T: 2.4, Q: 5.4, R: 15, S: 52, P: 81)

---

# Test system: human hepatocytes
# Method Summary: Hepatocytes stability assay (human hepatocytes)
# Format: in vitro ADME
# Test Context: human hepatocytes; scaled hepatic clearance divided by liver blood flow (well-stirred model, fu assumed unity)
Value Kind: Extraction Ratio (ER)

Some compounds with recorded Extraction Ratio (ER):
Compound	Observed Measurement
O=C1COc2ccccc2C2CCC(CC2)OC[C@H]2[C@@H](NS(=O)(=O)C(F)(F)F)CCCN12 (stereo in doubt) [Compound 11]	0.38
Cc1ccc2c(c1)OCCN1CCC[C@H](NS(C)(=O)=O)C1CO[C@H]1CC[C@@H]2CC1 (stereo in doubt) [Compound 50]	0.90
O=C1COc2ccccc2[C@H]2CC[C@H](CC2)OCC2[C@@H](NS(=O)(=O)C3CCOC3)CCCN12 (stereo in doubt) [Compound 73]	0.76

(a) CC(C)S(=O)(=O)N[C@H]1CCCN2C(=O)COc3ccccc3C3CCC(CC3)OC[C@@H]12 (stereo in doubt) [Compound 3]
(b) O=C1COc2ncncc2[C@H]2CC[C@H](CC2)OCC2[C@@H](NS(=O)(=O)C3CC3)CCCN12 (stereo in doubt) [Compound 97]
[ask] Which entry has a larger number for Extraction Ratio (ER), a or b ? // return label of chosen record
[reply] a

(a) CC(C)(C)S(=O)(=O)N[C@H]1CCCN2CCOc3ccccc3[C@H]3CC[C@H](CC3)OCC12 (stereo in doubt) [Compound 56]
(b) O=C1COc2ccccc2[C@H]2CC[C@H](CC2)OCC2[C@@H](NS(=O)(=O)C3COC3)CCCN12 (stereo in doubt) [Compound 80]
(c) CS(=O)(=O)N[C@H]1CCCN2C(=O)COc3cc(C#N)ccc3[C@H]3CC[C@H](CC3)OCC12 (stereo in doubt) [Compound 47]
[ask] Arrange the 3 entries by Extraction Ratio (ER) so the values rise. To answer, arrange all of the labels according to the requested order.
[reply] c, b, a
(c: 0.39, b: 0.63, a: 0.91)

(P) CC(C)S(=O)(=O)N[C@H]1CCN2C(=O)COc3ncccc3[C@H]3CC[C@H](CC3)OCC12 (stereo in doubt) [Compound 101]
(Q) Cc1ccc2c(c1)C1CCC(CC1)OC[C@H]1[C@@H](NS(=O)(=O)C3CC3)CCCN1C(=O)CO2 (stereo in doubt) [Compound 13]
[ask] Pick one, P or Q : lowest reported Extraction Ratio (ER). // return label of chosen record
[reply] Q

(a) O=S(=O)(N[C@H]1CCCN2CCOc3ncccc3[C@H]3CC[C@H](CC3)OCC12)C1CC1 (stereo in doubt) [Compound 63]
(b) Cc1ncnc2c1[C@H]1CC[C@H](CC1)OCC1[C@@H](NS(=O)(=O)C3CC3)CCN1C(=O)CO2 (stereo in doubt) [Compound 83]
[ask] Which entry has a larger number for Extraction Ratio (ER), a or b ? // return label of chosen record
[reply] a
(a: 0.87, b: 0.28)

---

# Test system: MDR1
# Method Summary: MDCK-MDR1 permeability assay
# Type: in vitro ADME
# Test Context: dog, MDCK-MDR1, MDCK-MDR1 cells; test compound 3 μM; 2 hours at 37 degrees C; apical to basolateral
Value Kind: Papp A→B at 2 h, 3 μM (×10⁻⁶ cm/s)

Compound	Observed Measurement
C[C@@H]1C[C@H](NS(C)(=O)=O)[C@@H]2CO[C@H]3CC[C@H](CC3)c3ccccc3OCC(=O)N12 [Compound 103]	1.4
Cc1cccc2c1C1CCC(CC1)OC[C@H]1[C@@H](NS(=O)(=O)C3CC3)CCCN1C(=O)CO2 (stereo in doubt) [Compound 4]	0.66
O=C1COc2nccnc2[C@H]2CC[C@H](CC2)OCC2[C@@H](NS(=O)(=O)C3CC3)CCCN12 (stereo in doubt) [Compound 65]	0.1

(a) O=C1COc2ccccc2[C@H]2CC[C@H](CC2)OCC2[C@@H](NS(=O)(=O)CC3CCC3)CCCN12 (stereo in doubt) [Compound 43]
(b) O=C1COc2ccccc2[C@H]2CC[C@H](CC2)OCC2[C@@H](NS(=O)(=O)C(F)(F)F)CCN12 (stereo in doubt) [Compound 100]
(c) Cc1ncnc2c1[C@H]1CC[C@H](CC1)OCC1[C@@H](NS(=O)(=O)C(F)(F)F)CCCN1C(=O)CO2 (stereo in doubt) [Compound 99]
[ask] Arrange the 3 entries by Papp A→B at 2 h, 3 μM so the values rise. To answer, arrange all of the labels according to the requested order.
[reply] c, a, b
